TGI values, listed per item
Tested on: HCT-15 colon
assay.comment: NCI tumour cell line growth inhibition, 48 h

compound: CC(=O)ON1CCCC(P(=O)(OCOC(=O)C(C)(C)C)OCOC(=O)C(C)(C)C)C1=O (stereo not given)
measured.property: TGI
assay.value: 6.71 µM
//
compound: O=c1cc(O)cc2n1CCC2
measured.property: TGI
assay.value: > 100 µM
//
compound: O=C(/C=C/c1ccc(O)c(O)c1)OCCc1ccc2ccccc2c1
measured.property: TGI
assay.value: 10.2 µM
//
compound: O=c1oc2ccccc2c(O)c1Cc1ccc(Cc2c(O)c3ccccc3oc2=O)cc1
measured.property: TGI
assay.value: > 100 µM
//
compound: C[C@]12Cc3cn[nH]c3C(=O)C1CC[C@@H]1C2CC[C@@]2(C)C1CC[C@@H]2O (stereo not given in full)
measured.property: TGI
assay.value: > 100 µM
//
compound: OC1(c2ccc(Cl)c(C(F)(F)F)c2)CCN(CCCC(c2ccc(F)cc2)c2ccc(F)cc2)CC1
measured.property: TGI
assay.value: 1.75 µM

Reported TGI ( CC1=N/C(=C\c2ccc(/C=C3/N=C(C)OC3=O)cc2)C(=O)O1 ) = > 100 µM

Reported TGI ( N#Cc1nc2c(S(=O)(=O)c3ccc(Cl)cc3)c(N)n(Nc3cccc(Cl)c3)c2nc1C#N ) = > 100 µM

Reported TGI ( O=c1c2ccccc2sc2c(CO)ccc(NCCN3CCCCC3)c12 ) = 14 µM

Reported TGI ( OCc1ccc2c(c1)CC1(C2)Cc2cc3c(cc2C1O)CCC3 (stereo not given) ) = > 44.2 µM

* * *

System: HT29 colon
assay.comment: NCI tumour cell line growth inhibition, 48 h
measured.property: TGI

molecule: N#C/C(=C\c1cc(OCc2ccccc2)c(OCc2ccccc2)cn1)C(N)=O
assay.value: > 100 µM

molecule: Nc1ncnc2c1N=C(c1ccc3c(c1)OCO3)CC(c1ccc(Cl)cc1)N2 (configuration not stated)
assay.value: > 100 µM

Reported TGI ( CCc1cccc(C)c1NC(=O)CCc1nc(=S)[nH][nH]1 ) = > 100 µM

Reported TGI ( CC1(C)CC(=O)C2=C(C1)C(c1ccccc1Cl)C1C(=O)CC(C)(C)CC1(O)O2 (configuration not stated) ) = > 100 µM

Reported TGI ( Cn1c([N+](=O)[O-])cnc1C=C1C(=O)c2ccccc2C1=O ) = 25.3 µM

Reported TGI ( COc1cc(C)c(CC/C(C)=C/Cc2cc(O)ccc2O)c(C)c1C ) = > 25 µM

Reported TGI ( O=c1oc2ccccc2c(O)c1Cc1ccc(Cc2c(O)c3ccccc3oc2=O)cc1 ) = > 100 µM

Reported TGI ( Cc1ccc2c(c1)CN1c3ccc(C)cc3CN2C1c1ccccc1O ) = > 100 µM

Reported TGI ( OCc1ccc2c(c1)CC1(C2)Cc2cc3c(cc2C1O)CCC3 (configuration not stated) ) = 17.5 µM

* * *

System: CCRF-CEM leukemia
assay.comment: NCI tumour cell line growth inhibition, 48 h
TGI values, listed per item

Field: example entries. Status: answers known.
compound: C[C@]12CCC3[C@@H](CCC45OC4C(=O)CC[C@]35C)C1Cc1cnn(-c3ccc(F)cc3)c1N2 (stereo partly specified)
measurement.target: CCRF-CEM leukemia
assay.value: > 100 µM
//
compound: CCOC1C=CC(=O)C(CO)O1 (stereo unspecified)
measurement.target: CCRF-CEM leukemia
assay.value: 6.07 µM

Reported TGI ( CCOC(=O)/C=C/c1nc(C#N)c(N)o1 ) = > 100 µM

Reported TGI ( c1ccc2c(c1)SCCCS2 ) = > 100 µM

Reported TGI ( CC1=CC2C3(C)C(C)(C(C)=CP3(=O)c3c(C(C)C)cc(C(C)C)cc3C(C)C)C1P2(=O)c1c(C(C)C)cc(C(C)C)cc1C(C)C (stereo unspecified) ) = 7.44 µM

Reported TGI ( CCN(CC)Cc1cc(Nc2nc(NC3CCC(N(C)C)CC3)c3ccccc3n2)ccc1OC (stereo unspecified) ) = 16.8 µM

Reported TGI ( Nc1ncc(Cc2ccc3c(c2)OCO3)c(N)n1 ) = > 100 µM

Reported TGI ( CC(Br)C(=O)NC(CO)C(=O)O (stereo unspecified) ) = > 100 µM
